Hi there, I'd appreciate the recorded activity at 30 min for every entry that follows.
- assayed target: UniProt P33261
- Sequence (P33261 whole entry): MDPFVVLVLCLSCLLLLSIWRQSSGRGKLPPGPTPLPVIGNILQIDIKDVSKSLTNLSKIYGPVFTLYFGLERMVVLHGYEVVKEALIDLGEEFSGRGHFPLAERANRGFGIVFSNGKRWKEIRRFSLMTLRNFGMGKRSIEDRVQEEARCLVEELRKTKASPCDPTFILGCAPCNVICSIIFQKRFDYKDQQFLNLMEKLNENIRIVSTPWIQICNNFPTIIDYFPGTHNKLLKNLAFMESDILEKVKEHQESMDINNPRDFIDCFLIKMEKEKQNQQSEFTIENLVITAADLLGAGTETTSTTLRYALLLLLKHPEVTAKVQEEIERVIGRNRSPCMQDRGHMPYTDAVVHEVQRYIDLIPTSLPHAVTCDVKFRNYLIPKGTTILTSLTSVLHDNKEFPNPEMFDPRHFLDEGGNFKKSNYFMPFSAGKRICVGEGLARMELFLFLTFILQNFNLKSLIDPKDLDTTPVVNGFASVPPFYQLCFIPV
- protocol: CYP2C19 inhibition, S-mephenytoin probe in human liver microsomes
- applied conditions: human, human liver microsomes, pH 7.4, probe S-mephenytoin 50 μM, Residual activity (%) CYP2C19, HLM 0.5 mg/mL, S-mephenytoin 50 μM, 30 min

Can you look up the measured activity at 30 min of CC(CC(=O)CC(C)C1CC(O)C2(C)C3=C(C(=O)CC12C)C1(C)CCC(=O)C(C)(C)C1CC3=O)C(=O)O (stereo not shown) for me?
70.3%

Can you look up the measured activity at 30 min of CC(CC(=O)CC(C)C1CC(O)C2(C)C3=C(C(=O)CC12C)C1(C)CCC(=O)C(C)(C)C1CC3)C(=O)O (stereo not shown) for me?
79.3%

Can you look up the measured activity at 30 min of CC1(C)CCC2(C(=O)O)CCC3(C)C(=C2C1)C=CC1C2(C)CCC(O)C(C)(C)C2CCC13C (stereo not shown) for me?
84.4%

Can you look up the measured activity at 30 min of CC(=O)OC1C(=O)C2=C(C(O)CC3C2(C)CCC(O)C3(C)C)C2(C)C(=O)CC(C(C)=CC(=O)CC(C)C(=O)O)C12C (stereo not shown) for me?
74.8%

Can you look up the measured activity at 30 min of CC(=O)OC1C(=O)C2=C(C(=O)CC3C2(C)CCC(O)C3(C)C)C2(C)C(=O)CC(C3(C)CCC(=O)O3)C12C (stereo not shown) for me?
109%

Can you look up the measured activity at 30 min of CC(CC(=O)CC(C)C1CC(O)C2(C)C3=C(C(=O)CC12C)C1(C)CCC(O)C(C)(CO)C1CC3=O)C(=O)O (stereo not shown) for me?
57.8%

Can you look up the measured activity at 30 min of CC(CC(=O)CC(C)C1CC(=O)C2(C)C3=C(C(=O)C(O)C12C)C1(C)CCC(=O)C(C)(CO)C1CC3O)C(=O)O (stereo not shown) for me?
63.6%
